Just for reference, patent US20180193294A1 is where these values come from.

# TEST SYSTEM: 3R Shaker K channel (Drosophila melanogaster, UniProt P08510, A359R/M356R)
# Sequence (P08510 whole entry M356R/A359R): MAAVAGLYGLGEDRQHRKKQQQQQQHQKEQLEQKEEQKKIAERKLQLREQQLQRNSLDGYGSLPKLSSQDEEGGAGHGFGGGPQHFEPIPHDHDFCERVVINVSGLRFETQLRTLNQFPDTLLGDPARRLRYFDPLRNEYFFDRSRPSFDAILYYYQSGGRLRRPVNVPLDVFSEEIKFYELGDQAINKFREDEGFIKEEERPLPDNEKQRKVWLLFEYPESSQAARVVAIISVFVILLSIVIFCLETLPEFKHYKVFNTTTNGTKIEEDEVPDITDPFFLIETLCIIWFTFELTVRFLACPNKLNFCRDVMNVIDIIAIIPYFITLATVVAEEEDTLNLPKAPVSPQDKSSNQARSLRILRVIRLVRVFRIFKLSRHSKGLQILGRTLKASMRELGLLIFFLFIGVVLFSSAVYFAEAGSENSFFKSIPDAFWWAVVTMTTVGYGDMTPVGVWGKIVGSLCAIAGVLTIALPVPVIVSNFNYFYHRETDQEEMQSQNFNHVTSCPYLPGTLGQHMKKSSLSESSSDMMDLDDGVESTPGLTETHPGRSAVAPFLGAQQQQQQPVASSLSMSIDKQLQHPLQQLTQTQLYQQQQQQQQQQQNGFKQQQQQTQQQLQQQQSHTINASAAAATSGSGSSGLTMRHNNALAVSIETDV
# EXPERIMENT NOTES: physchem
# Type: cell-based
# CONDITION SUMMARY: Table 1; 100 μM, pH 7.4, Xenopus oocytes
G(V) shift: recorded values
Output spec: scalar in mV, unitless text.

Solved cases below.
Retrieve G(V) shift measured for C=CCON=C1CC2C(C)(C(=O)O)CCCC2(C)c2c(Cl)c(Cl)c(C(C)C)c(Cl)c21 (centres unmarked) [Wu49] and print it. −7.3

Retrieve G(V) shift measured for CC(C)c1c(Cl)cc2c(c1Cl)C(=O)CC1C(C)(C(=O)O)CCCC21C (centres unmarked) [Wu37] and print it. −11.1

Retrieve G(V) shift measured for C=CCO/N=C1\C[C@H]2[C@](C)(C(=O)O)CCC[C@]2(C)c2ccc(C(C)C)c(I)c21 [Wu91] and print it. −12.5

Retrieve G(V) shift measured for CC(C)c1ccc2c(c1F)CC[C@H]1[C@](C)(C(=O)O)CCC[C@]21C [Wu56] and print it. −6.6

Further cases:
Retrieve G(V) shift measured for CC(C)c1c(Cl)cc2c(c1Cl)C(=NOCc1ccccc1)CC1C(C)(C(=O)O)CCCC21C (centres unmarked) [Wu43] and print it. −4.2
